System: 786-0 renal
Assay: NCI tumour cell line growth inhibition, 48 h
Recorded TGI by entry
Hi! Could you send only the number? It should be in µM, unit omitted.

1) COc1cc2c3c(n(C)c(=O)c2cc1OC)-c1cc2c(cc1/C3=C/[C@H](N)CCCCN)OCO2: 18
2) O=C1C=CC(=O)c2c1ncc1c2nc2sccn21: 36.3

Turning now to a further compound:
Quick check: TGI of `CC(C)CCC/C(CBr)=C(\Cl)CCl` ? 3.67

* * *

Tested on: COLO 205 colon
Experiment: NCI tumour cell line growth inhibition, 48 h; in the data active means GI50 below about 0.43 µM; inactive means the rest
Choose the fitting class; nothing outside active, inactive is accepted.

Use the examples below as a reference point.
1) COc1ccc2c(c1)C(=O)c1c-2n(CCCN2CCOCC2)c(=O)c2cc([N+](=O)[O-])ccc12: active
2) COc1ccc(C2=C(c3cc(OC)c(OC)c(OC)c3)C(=O)OC2)cc1OC: active
3) C=C(C)[C@@H]1CC[C@]2(C(=O)NCCNCCNCCN)CC[C@]3(C)[C@H](CC[C@@H]4[C@@]5(C)CCC(=O)C(C)(C)[C@@H]5CC[C@]43C)[C@@H]12: inactive

# fetch the recorded call for `COC(=O)[C@@H]1CCCN1C(=O)[C@H]1CCCN1C(=O)[C@@H](Cc1c[nH]c2ccccc12)NC(=S)Nc1cc(C(F)(F)F)cc(C(F)(F)F)c1` here inactive

# fetch the recorded call for `OCc1ccc(Oc2c3ccccc3nc3occc23)cc1` here inactive

# fetch the recorded call for `O=C1CC/C(=C\COc2ccc3ccc(=O)oc3c2)O1` here inactive

# fetch the recorded call for `Cc1ccc(/C(=C/C=C(C#N)C#N)Sc2ccccn2)cc1` here inactive

# fetch the recorded call for `Oc1ccc(CN(Cc2ccc(C(F)(F)F)cc2)Cc2ccc(O)c3ncccc23)c2cccnc12` here active

# fetch the recorded call for `CN1C(=O)C(c2c[nH]c3ccccc23)=C(c2c(-c3c[nH]c4ccccc34)[nH]c3ccccc23)C1=O` here inactive

* * *

System: SN12C renal
Experiment: NCI tumour cell line growth inhibition, 48 h; in the data active means GI50 below about 0.43 µM; inactive means the rest
Choose the fitting class; nothing outside 1 for active, -1 for inactive is accepted.

Use the examples below as a reference point.
1) C=C1C(=O)O[C@H]2C[C@@H]1CCC1(C)OC1CC/C(C)=C/CC[C@H]2C (stereo not given in full): -1
2) CNCCOC(=O)/C=C1/CCC2C(C(O)CC3C(C)(C(=O)OC)CCCC23C)C1C (stereo not given): 1
3) Cc1ccccc1C(C(=O)NC1CCCCC1)N(C(=O)Cn1ccnc1C)c1cccc(F)c1 (stereo not given): -1
4) NC(N)=N/N=C/c1c(-c2ccc(Cl)c([N+](=O)[O-])c2)nc2ccccn12: -1
5) COC(=O)[C@@H]1CCCN1C(=O)[C@H]1CCCN1C(=O)[C@@H](Cc1c[nH]c2ccccc12)NC(=S)Nc1cc(C(F)(F)F)cc(C(F)(F)F)c1: -1

# fetch the recorded call for `O=C1C=CC(=O)c2c1ncc1c2nc2sccn21` here -1

# fetch the recorded call for `CCC[CH2][Sn]1([CH2]CCC)[O]C(=O)CN=Cc2ccccc2[O]1` here 1

* * *

System: SF-268 CNS
Assay: NCI tumour cell line growth inhibition, 48 h
reported.metric: TGI

1. O=C(C#Cc1cn(C2CC(O)C(CO)O2)c(=O)[nH]c1=O)c1ccccc1 (stereo not given): > 100 µM
2. O=C(CCCn1ccnc1[N+](=O)[O-])NCCn1ccnc1[N+](=O)[O-]: > 100 µM
3. Cn1c(=O)oc2cc(C3CCC(=O)N3Cc3ccc(Cl)cc3)ccc21 (stereo not given): > 100 µM
4. Cc1cccc2c1C/C(=C\c1cccc(C)c1C(=O)O)C2=O: > 100 µM
5. O=C(Nc1cccc(-n2ccc3c(NC(=O)c4ccccc4)nccc32)c1)c1cc(N2CCOCC2)cc(C(F)(F)F)c1: > 100 µM

Quick check: TGI of `COc1ccc(/C=C2\CN(C)Cc3c2[nH]c(=O)c(C#N)c3-c2ccc(OC)cc2)cc1` ? > 100 µM

Quick check: TGI of NC1=NC(c2ccc(F)cc2)C2=C(N1)c1ccc3ccccc3c1OCC2 (stereo not given) ? > 100 µM

Quick check: TGI of `COc1ccc(C2=C(c3cc(OC)c(OC)c(OC)c3)C(=O)OC2)cc1OC` ? 30.5 µM

Quick check: TGI of CC1=CC2CC(C)C1(C)CCc1ccoc12 (stereo not given) ? > 100 µM

Quick check: TGI of `Cc1ccc(/C(=C/C=C(C#N)C#N)Sc2ccccn2)cc1` ? 12.3 µM
